- Condition Context: 293.15 K; 101.33 kPa; Liquid; Pycnometric method
Metric: mass density (kg/m3)
Numeric only. Scale: kg/m3

## Task Which mass density is reported for this compound? CCCCCO
## Result 812.9

## Task Fill blank: measured mass density of the compound CO is ____.
## Result 791.7

## Task Reported mass density for CC(C)O : what is it?
## Result 784.9

## Task Reported mass density, compound CCCCO : ____
## Result 810.3

## Task Recorded mass density of CCCO , please.
## Result 803.8

## Task mass density for CCC(C)O (configuration not stated) ?
## Result 802.6

## Task # input compound: CCCCCCO ; wanted: its mass density
## Result 813.8

Where do the numbers come from? From the NIST ThermoML archive (doi:10.1021/je800520w).
